target: CDK2/Cyclin A (Homo sapiens); test: Inhibition of CDK2/Cyclin A Retinoblastoma Kinase Activity; assay type: biochemical; details: at 0.03 μM
Property Label: CDK2 % Inhibition at 0.03 μM (%)

Past entries and their recorded results:
>>> number("Nc1nc(NC2CCN(C(=O)c3ccc(Cl)c(Cl)c3)CC2)sc1C(=O)c1c(F)cccc1F")
21
>>> number("Nc1nc(NC2CCN(C(=O)c3sccc3Cl)CC2)sc1C(=O)c1c(F)cccc1F")
62
>>> number("COC(C(=O)N1CCC(Nc2nc(N)c(C(=O)c3c(F)cccc3F)s2)CC1)(c1ccccc1)C(F)(F)F (stereo not shown) [Example R16]")
"−29"
>>> number("COC(=O)CC(=O)N1CCC(Nc2nc(N)c(C(=O)c3c(F)cccc3F)s2)CC1")
"−24"
>>> number("Cc1ccc(Oc2ncccc2C(=O)N2CCC(Nc3nc(N)c(C(=O)c4c(F)cccc4F)s3)CC2)cc1")
37
>>> number("Nc1nc(NC2CCN(C(=O)c3ccc(-c4ccccc4)cc3)CC2)sc1C(=O)c1c(F)cccc1F")
28
>>> number("Nc1nc(NC2CCN(C(=O)c3ccc4c(c3)OCO4)CC2)sc1C(=O)c1c(F)cccc1F")
"−3"
>>> number("COc1cccc(C(=O)N2CCC(Nc3nc(N)c(C(=O)c4c(F)cccc4F)s3)CC2)c1")
26
>>> number("Nc1nc(NC2CCN(C(=O)c3cc(Cl)cc(Cl)c3)CC2)sc1C(=O)c1c(F)cccc1F")
29
>>> number("Nc1nc(NC2CCN(C(=O)C3(c4ccc(Cl)cc4)CC3)CC2)sc1C(=O)c1c(F)cccc1F")
"−1"

I = CCSc1ncccc1C(=O)N1CCC(Nc2nc(N)c(C(=O)c3c(F)cccc3F)s2)CC1
II = CCC(C(=O)N1CCC(Nc2nc(N)c(C(=O)c3c(F)cccc3F)s2)CC1)c1ccccc1 (stereo not shown) [Example R10]
Which value of CDK2 % Inhibition at 0.03 μM is numerically greater: that of I or that of II ? Label of pick, please. I
(I: 37%, II: 5%)

I = COC(=O)c1ccc(C(=O)N2CCC(Nc3nc(N)c(C(=O)c4c(F)cccc4F)s3)CC2)cc1 [Example R33]
II = CCCCCOc1ccc(C(=O)N2CCC(Nc3nc(N)c(C(=O)c4c(F)cccc4F)s3)CC2)cc1
Of I and II , which carries the smaller reported CDK2 % Inhibition at 0.03 μM figure? Label of pick, please. II

P = Nc1nc(NC2CCN(C(=O)C3Cc4ccccc43)CC2)sc1C(=O)c1c(F)cccc1F (stereo not shown)
Q = Cc1nn(-c2ccccc2)nc1C(=O)N1CCC(Nc2nc(N)c(C(=O)c3c(F)cccc3F)s2)CC1
Of P and Q , which carries the smaller reported CDK2 % Inhibition at 0.03 μM figure? Label of pick, please. P
(P: 10%, Q: 20%)
